Please respond with reported TGI for every item in the list.
# Test system: LOX IMVI melanoma
# Method summary: NCI tumour cell line growth inhibition, 48 h
Answers are plain numbers, in µM.

| Compound | Reported measurement |
| --- | --- |
| COc1ccc(-c2nc3c(nc2-c2ccc(OC)cc2)N(C)S(=O)(=O)N=C3N)cc1 | 29.9 |
| CC(C)(C)N=CN(C=C(c1ccccc1)c1ccccc1)C1CCCCC1 | 92.3 |
| COc1cc2cc(C(=O)N3CC(CCl)c4c3cc(O)c3ccccc43)[nH]c2c(OC)c1OC (centres undefined) | 0.625 |
| Cc1cc(=O)c2ccccc2n1CCCCCCCCCCn1c(C)cc(=O)c2ccccc21 | 17.8 |
| CN1CCN(c2ccc(C(=O)Nc3cccc(C#Cc4cccc5[nH]nc(N)c45)c3)cc2C(F)(F)F)CC1 | 1.08 |

Give the value of TGI reported for the following: "Cc1ccc(S(=O)(=O)SCc2ccccc2)cc1"
37.2

====

# Tested on: MDA-MB-231 breast
# Method summary: NCI tumour cell line growth inhibition, 48 h
Please respond with reported TGI for every item in the list.

Parameters: items (list). Returns: TGI for each item.
1. O=c1[nH]c(=O)n2n1C1C=CC2CC1
2. COc1ccccc1/C=C/c1nc2ccccc2o1

1: > 100 µM; 2: > 10 µM

Parameters: items (list). Returns: TGI for each item.
1. COc1ccc(Oc2cc(NCCC(F)(F)F)c3ncc(-c4ccc(C(=O)NC5CC5)c(C)c4)n3n2)c(F)c1F
2. O=[p+]1c2ccccc2[nH]c2ccccc21
3. CC(C)(O)CCc1ccc(O)c2c(=O)c3c(O)c4c(cc3oc12)O[C@H]1OC=C[C@@]41O

["> 100 µM", "> 100 µM", "> 100 µM"]

====

# Test system: PC-3 prostate
# Method summary: NCI tumour cell line growth inhibition, 48 h
Where a SMILES comes first, the peptide text is derived from it. The star is where a group is joined. Cbz = O=C(OCc1ccccc1)*
Measured property: TGI

Recorded results for 2 compounds are shown here.
| Compound | Reported measurement |
| --- | --- |
| Cc1ccc(C(=O)N=Nc2c(O)[nH]c3ccc(Cl)cc23)cc1 | > 50 µM |
| CN(C)c1ccc(/C=N/NC(=O)c2cccc3ccccc23)c(Cl)c1 | > 100 µM |

Give measured TGI for CCOC(=O)CNC(=O)C(C)NC(=O)C(NC(=O)OCc1ccccc1)C(C)C (stereo not drawn) (Cbz-Val-Ala-Gly-OEt; configuration not given here) (PC-3 prostate).
> 100 µM

====

# Test system: U251 CNS
# Method summary: NCI tumour cell line growth inhibition, 48 h
Measured property: TGI

Recorded results for 5 compounds are shown here.
| Compound | Test target | Measured property | Reported measurement |
| --- | --- | --- | --- |
| Cn1c(C(C)(C)OC(=O)Oc2ccccc2)cnc1[N+](=O)[O-] | U251 CNS | TGI | > 100 µM |
| COc1cc2ccc(CC(N)=O)cc2cc1OC | U251 CNS | TGI | > 100 µM |
| CC(OC(=O)N(N(CCCl)S(C)(=O)=O)S(C)(=O)=O)c1ccc([N+](=O)[O-])cc1 (configuration not stated) | U251 CNS | TGI | > 100 µM |
| CC(C)(C)OC(=O)NCCCCCCCCCCn1c2c(c3ccccc3c1=O)C(=O)c1ccccc1-2 | U251 CNS | TGI | > 100 µM |
| Cc1c(-c2ccc(O)c(O)c2)oc(=O)c2c(O)cccc12 | U251 CNS | TGI | 26.1 µM |

Parameters: items (list). Returns: TGI for each item.
1. COc1ccc(/C=C(/c2ccccc2)c2c(C)cc(C)c(/C(=C\c3ccc(OC)cc3)c3ccccc3)c2N=Nc2cc(C)cc(C)c2)cc1
2. O=C(NC(=O)c1cc2cc(Br)cc(Br)c2oc1=O)Oc1ccccc1
3. O=C1CCC2(c3ccccc3)Nc3ccc(Cl)cc3N12 (configuration not stated)

> 100 µM
> 100 µM
> 100 µM

Parameters: items (list). Returns: TGI for each item.
1. CC(C)(O)CCc1ccc(O)c2c(=O)c3c(O)c4c(cc3oc12)O[C@H]1OC=C[C@@]41O
2. COC(=O)c1ccc(C)cc1CC1Cc2c(C)cccc2C1=O (configuration not stated)

0.0396 µM
20.8 µM
